These data points were gathered from PubChem BioAssay AID2060892.

system: HOP-62 complex spheroids with HUVEC/MSC, viability; assay: Anticancer human tumor HOP-62 cell line growth inhibition [RAS]; conditions: second compound 0.0316 µM; first compound 0.00316 µM; stronger effect = lower value;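 further: spheroids exposed to agents for seven days before readout; 100% = DMSO vehicle control viability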
readout: viability, T/C (%)
Give just the number in %; leave the unit off.

According to the records, this compound Nc1ccn(C2OC(CO)C(O)C2(F)F)c(=O)n1 (stereo unspecified) + C#Cc1c(F)ccc2cc(O)cc(-c3ncc4c(N5CC6CCC(C5)N6)nc(OCC56CCCN5CC(F)C6)nc4c3F)c12 displays viability, T/C of 107

Just so you know, measured viability, T/C for Nc1ccn(C2OC(CO)C(O)C2(F)F)c(=O)n1 (stereo unspecified) + C=CC(=O)N1CCN(c2nc(OCC3CCCN3C)nc3c(F)c(-c4nc(N)cc(C)c4C(F)(F)F)c(Cl)cc23)C(C)C1 came out at 57.3

The reported viability, T/C of the compound CC(C)n1nc(-c2ccc3oc(N)nc3c2)c2c(N)ncnc21 + C=CC(=O)N1CCN(c2nc(OCC3CCCN3C)nc3c(F)c(-c4nc(N)cc(C)c4C(F)(F)F)c(Cl)cc23)C(C)C1 was 43

Quick note, viability, T/C for CC(C)n1nc(-c2ccc3oc(N)nc3c2)c2c(N)ncnc21 + C#Cc1c(F)ccc2cc(O)cc(-c3ncc4c(N5CC6CCC(C5)N6)nc(OCC56CCCN5CC(F)C6)nc4c3F)c12 landed at 86.8

According to the records, this compound C=CC(=O)Nc1cc(Nc2nccc(-c3cn(C)c4ccccc34)n2)c(OC)cc1N(C)CCN(C)C + C=CC(=O)N1CCN(c2nc(OCC3CCCN3C)nc3c(F)c(-c4nc(N)cc(C)c4C(F)(F)F)c(Cl)cc23)C(C)C1 displays viability, T/C of 74.9

Data point: C=CC(=O)N1CCN(c2nc(OCC3CCCN3C)nc3c(F)c(-c4nc(N)cc(C)c4C(F)(F)F)c(Cl)cc23)C(C)C1 (stereo unspecified) + C#Cc1c(F)ccc2cc(O)cc(-c3ncc4c(N5CC6CCC(C5)N6)nc(OCC56CCCN5CC(F)C6)nc4c3F)c12 ; viability, T/C = 79.5

Sample CCN1CCN(Cc2ccc(Nc3ncc(F)c(-c4cc(F)c5nc(C)n(C(C)C)c5c4)n3)nc2)CC1 + C#Cc1c(F)ccc2cc(O)cc(-c3ncc4c(N5CC6CCC(C5)N6)nc(OCC56CCCN5CC(F)C6)nc4c3F)c12 ; viability, T/C observed: 119

Record C=CC(=O)Nc1cc(Nc2nccc(-c3cn(C)c4ccccc34)n2)c(OC)cc1N(C)CCN(C)C + C#Cc1c(F)ccc2cc(O)cc(-c3ncc4c(N5CC6CCC(C5)N6)nc(OCC56CCCN5CC(F)C6)nc4c3F)c12 . Reported viability, T/C: 109

Measured viability, T/C, CCN1CCN(Cc2ccc(Nc3ncc(F)c(-c4cc(F)c5nc(C)n(C(C)C)c5c4)n3)nc2)CC1 + C=CC(=O)N1CCN(c2nc(OCC3CCCN3C)nc3c(F)c(-c4nc(N)cc(C)c4C(F)(F)F)c(Cl)cc23)C(C)C1 : 72.2

The reported viability, T/C of the compound O=C(c1ccc(F)c(F)c1Nc1ccc(I)cc1F)N1CC(O)([C@@H]2CCCCN2)C1 + C=CC(=O)N1CCN(c2nc(OCC3CCCN3C)nc3c(F)c(-c4nc(N)cc(C)c4C(F)(F)F)c(Cl)cc23)C(C)C1 was 68.1

Lab note: measured viability, T/C of O=C(c1ccc(F)c(F)c1Nc1ccc(I)cc1F)N1CC(O)([C@@H]2CCCCN2)C1 + C#Cc1c(F)ccc2cc(O)cc(-c3ncc4c(N5CC6CCC(C5)N6)nc(OCC56CCCN5CC(F)C6)nc4c3F)c12 was 107
